Test system: Oryctolagus cuniculus
Assay: High density lipoprotein (HDL) percent control of cholesterol after administration in rabbits.
Assay type: functional
Design: concentration or dose not given beside the values
ATTRIBUTE MEASURED: Control (%)
# output: bare number, implied unit %

Identify the measured Control of CC(C)(C)c1cc(OC[Si](C)(C)c2ccc(Cl)cc2)cc(C(C)(C)C)c1O for Oryctolagus cuniculus.
109

Identify the measured Control of COc1ccccc1[Si](C)(C)COc1cc(C(C)(C)C)c(O)c(C(C)(C)C)c1 for Oryctolagus cuniculus.
217

Identify the measured Control of CC(C)(C)c1cc(OC[Si](C)(C)c2ccccc2)cc(C(C)(C)C)c1O for Oryctolagus cuniculus.
81

Identify the measured Control of COc1ccc([Si](C)(C)COc2cc(C(C)(C)C)c(O)c(C(C)(C)C)c2)cc1 for Oryctolagus cuniculus.
123

Identify the measured Control of CC(C)(C)c1cc(SC[Si](C)(C)c2ccccc2)cc(C(C)(C)C)c1O for Oryctolagus cuniculus.
75
